# Tested on: SK-MEL-2 melanoma
# PROTOCOL: NCI tumour cell line growth inhibition, 48 h
ENDPOINT: TGI

Data request: Fill in TGI for record COc1ccc(-n2c3c(c4cc(O)ccc42)Cc2ccccc2C3=O)cc1
Data returned: > 100 µM

Data request: Give the reported TGI for this compound. Cc1cccc(/C=N\NC(=S)N2CCCCC2)n1
Data returned: > 100 µM

Data request: Supply reported TGI belonging to this compound: CN1N=C(c2ccccc2)C(C(c2ccccc2[N+](=O)[O-])C2C(=O)N(C)N=C2c2ccccc2)C1=O (stereo unspecified)
Data returned: > 100 µM

Data request: Answer with reported TGI of CCOC(=O)c1nc2ccc(C(F)(F)F)cc2nc1Nc1ccc(F)cc1
Data returned: > 100 µM

For the 4 compounds below, give their TGI values.
1. Cc1oc(N)c(S(=O)(=O)c2cc3ccccc3n(O)c2=N)c1C
2. Cc1ccc(OCC2=NC3S/C(=C/c4ccc([N+](=O)[O-])o4)C(=O)N3N2)cc1 (stereo unspecified)
3. CCOC(=O)c1nc2ccccc2nc1Nc1ccc(OC)cc1
4. CC(=O)C1(C)CC(C#N)(C#N)C(C#N)=C1N (stereo unspecified)

Data returned:
1. > 100 µM
2. 31.7 µM
3. > 100 µM
4. > 100 µM

* * *

Please go through the items and note down their TGI.
# Test system: M14 melanoma
# PROTOCOL: NCI tumour cell line growth inhibition, 48 h

Data request: State TGI (M14 melanoma) of CCOc1ccc(/C=C(\Cl)c2ccc(OC)cc2)cc1 .
Data returned: > 100 µM

Data request: Under M14 melanoma: report TGI of O/C(=C\c1nc2ccccc2nc1/C=C(\O)c1ccc(F)cc1)c1ccc(F)cc1 .
Data returned: > 100 µM

Data request: # return TGI for Cc1nc(-n2nc(-c3ccccc3)cc2-c2ccccc2)sc1C(=O)/C=C/c1ccc(Cl)c(Cl)c1 , test system: M14 melanoma
Data returned: 40.5 µM

Batch of 6 molecules: report TGI for each.
1. CCN(CC)c1ccc(C2Nc3ccc4ccccc4c3C3=C2C(=O)CCC3)cc1 (stereo unspecified)
2. COc1ccc(S(=O)(=O)N[C@H](C(=O)O)c2ccccc2)cc1
3. N#Cc1ccccc1C#C/C=C\C#Cc1ccccc1N
4. O=C(Nc1cccc(-n2cc(-c3ccncc3)c(-c3ccc(O)c(Cl)c3)n2)c1)c1cc(C(F)(F)F)cc(C(F)(F)F)c1
5. O=C(CO[N+](=O)[O-])OC/C=C/c1ccccc1
6. COc1cc(C(c2cccc3ccccc23)N2C(=O)CCC2C(=O)O)cc(OC)c1OC (stereo unspecified)

Data returned:
1. > 100 µM
2. > 100 µM
3. 11.3 µM
4. > 50 µM
5. > 100 µM
6. > 100 µM

Record TGI per entry; entries follow.
1. COC1=C(OC)C(=O)C(Sc2ccc3ccccc3c2)=CC1=O
2. COC1OC(CBr)C(OC(=O)c2ccccc2)C(OS(=O)(=O)c2ccc(C)cc2)C1Br (stereo unspecified)
3. CCCCCCCCCCSC(=O)NC
4. CCCCNC(=NCc1ccccc1)NC#N
5. Cc1cc(C)c2c(=O)n(CC(O)CN3CCN(CCOCCO)CC3)sc2n1 (stereo unspecified)
6. NC(=O)NNCc1c(-c2ccccc2)no[n+]1[O-]

Data returned:
["21.8 µM", "> 100 µM", "50 µM", "> 100 µM", "33.5 µM", "> 100 µM"]

List the reported TGI of each molecule below.
1. OC(Cc1ccc2ccccc2n1)(C(F)(F)Cl)C(F)(F)Cl
2. COc1cccc(/C=N/[N-]C(N)=O)c1[O-].[Ni+2].[OH3+]
3. CN=C(N)N=Nc1c(O)[nH]c2ccccc12

Data returned:
1: > 10 µM; 2: 2.08 µM; 3: > 100 µM

Hello, I would appreciate it if you could give TGI for each entry below.
1. O=C(N/C(=C\c1ccccc1Cl)c1nc2ccccc2[nH]1)c1ccccc1
2. O=C(Cc1ccc([N+](=O)[O-])c([N+](=O)[O-])c1CC(=O)C(=O)Nc1cc(Cl)ccc1Cl)C(=O)Nc1cc(Cl)ccc1Cl
3. CCOc1ccc(OCC)c([P+](c2ccccc2)(c2ccccc2)c2ccccc2)c1

Data returned:
54.3 µM
> 100 µM
12.6 µM

* * *

# System: SR leukemia
# PROTOCOL: NCI tumour cell line growth inhibition, 48 h
ENDPOINT: TGI (µM)
Answers are plain numbers, in µM.

Data request: Note TGI for the molecule shown: COc1c(O)cc2c(c1O)C(=O)C1=C(CCCC1)C2=O
Data returned: 34.2

---
Data request: Answer with the recorded TGI for the molecule listed here: CCOC(=O)c1sc2c(c1O)c(=O)n(-c1ccccc1)c(=S)n2-c1ccccc1
Data returned: 46.9

* * *

# Tested on: RPMI-8226 leukemia
# PROTOCOL: NCI tumour cell line growth inhibition, 48 h; in the data active = GI50 below about 0.43 µM; inactive = the rest
Your response should consist of one outcome taken from 1 for active, -1 for inactive

For orientation, consider the following solved cases.
Data request: Dear all, I need the recorded test outcome for CC1C(=O)c2cc3c(cc2CCN(C)Cc2c1ccc1c2OCO1)OCO3 (centres undefined) , thank you.
Data returned: -1

Data request: Per the assay record, what outcome was assigned to CCOC(=O)c1c(NC(=O)c2ccccc2)sc2c3c(ccc12)OCN(C)C3 ?
Data returned: -1

Data request: Answer briefly: the call reported for CCN(CC)c1ccc2nc3c4ccccc4c(=O)cc-3n(-c3ccccc3)c2c1 in this assay.
Data returned: -1

Others:
Data request: Please state the recorded outcome for this molecule: COc1ccc(Cl)cc1Nc1nc(C(F)(F)F)ccc1C(=O)N/N=C/c1cccnc1
Data returned: -1

Data request: Answer briefly: the call reported for O=C(Cc1csc2nc(-c3ccc(Cl)cc3)cn12)N/N=C/c1ccccc1O in this assay.
Data returned: -1

Data request: Short answer needed: outcome of this test for N#Cc1ccccc1C#C/C=C\C#CC#C/C=C\C#Cc1ccccc1C#N ?
Data returned: -1

Data request: Give the logged outcome of this assay for the following molecule: CCN(CC)CCC(CNc1ccnc2cc(Cl)ccc12)c1ccccc1 (centres undefined)
Data returned: -1

Data request: Which result was noted for this molecule in the test: Cc1ccc(/C=C/c2c(C(=O)/C=C/c3ccc(Cl)cc3)c(C)nc3ccccc23)cc1
Data returned: -1

Data request: Any idea what this test logged for CC[C@]1(O)CC2CN(CCc3c([nH]c4ccccc34)[C@@](C(=O)OC)(c3cc4c(cc3OC)N(C=O)[C@H]3[C@@](O)(C(=O)OC)[C@H](OC(C)=O)[C@]5(CC)C=CCN6CC[C@]43[C@@H]65)C2)C1 (some centres undefined) ?
Data returned: 1

* * *

# Test system: SW-620 colon
# PROTOCOL: NCI tumour cell line growth inhibition, 48 h
Please respond with reported GI50 for every item in the list.

Consider the reported GI50 for these molecules:
Data request: Answer with the recorded GI50 of O=C(Nc1ccc(-n2ccc3c(NC(=O)c4ccccc4)nccc32)cc1)Nc1cccc(C(F)(F)F)c1 only.
Data returned: 4.96 µM

Data request: Output measured GI50 for this item: O=c1c2ccccc2nc(-c2ccccc2Cl)n1-c1nnc(C(F)(F)F)s1
Data returned: 3.4 µM

Data request: Give the measured GI50 for COc1ccc2nc3cc([N+](=O)[O-])ccc3c(NNc3ccccc3)c2c1
Data returned: 19.8 µM

Data request: Provide one value: measured GI50 of CC(C)(C)NC(=O)[C@H]1CC[C@H]2[C@@H]3CC[C@H]4NC(=O)C=C[C@]4(C)[C@H]3CC[C@]12C
Data returned: > 100 µM

Data request: Quickly give me recorded GI50 for CCN(CC)CCN1C(=O)C2C3C(=O)CC(C)(CC3C)C2C1=O (centres undefined)
Data returned: > 100 µM

Data request: Read the entry CCOC(=O)c1c(NC(=O)c2ccccc2)sc2c3c(ccc12)OCN(C)C3 and write its reported GI50.
Data returned: 1.63 µM

Each molecule below has a reported value. Please supply its GI50.
1. O=C(COc1ccc(OCC(=O)N2C(=O)CN(c3ccccc3)C2=S)cc1)N1C(=O)CN(c2ccccc2)C1=S
2. CCN(CC)c1ccc2nc3c4ccccc4c(=O)cc-3n(-c3ccccc3)c2c1
3. CCCCCC[C@@H](C)Nc1nc2ccccc2c2occc12

Data returned:
> 25 µM
2.89 µM
11.2 µM

* * *

# Tested on: SR leukemia
# PROTOCOL: NCI tumour cell line growth inhibition, 48 h
Exercise: for every item that follows, state its recorded TGI.

Example compounds with recorded TGI:
Data request: Using the record for COC(=O)C1C(=O)O[C@@H](c2ccc(OC)c(OC)c2OC)C1C(=O)OC (mixture of isomers) , state its measured TGI.
Data returned: > 100 µM

Data request: Return value of TGI for input CC1=C[C@@H](C)C[C@]2(C)CC[C@H](O2)[C@]23CC[C@](CO)(C[C@H](O2)[C@@H]2O[C@@](C)(CC2=O)[C@@H](O)[C@H]2CC[C@@]4(CCC[C@@H](O4)[C@H](C)C(=O)O[C@H]4C[C@H]([C@]5(O)OCC[C@H](C)[C@@H]5O)O[C@H]4C=C1)O2)O3 , no commentary.
Data returned: > 10 µM

Data request: Please indicate TGI recorded for COC(=O)n1c(C)c(C=O)c2ccc(OC)cc21
Data returned: > 100 µM

List reported TGI for each of these compounds:
1. CCOC(=O)CCC(NC(=O)c1ccc(N=Cc2nc3ccccc3nc2-c2ccccc2)cc1)C(=O)OCC (stereo not drawn)
2. CCOC(=O)/C(C#N)=C1\SS/C(=C(/C#N)C(=O)OCC)S1
3. O=C(Nc1ccccc1C(F)(F)F)c1ccc(NC2=C(Cl)C(=O)N(Cc3ccccc3)C2=O)cc1

Data returned:
["> 100 µM", "> 100 µM", "3.86 µM"]

Working through the 2 compounds below one at a time, give TGI for each.
1. COc1cc(C(C[N+](=O)[O-])SC(C)=O)ccc1OCc1ccccc1 (stereo not drawn)
2. CCN1CCN(c2nc3ccccc3nc2C(=O)c2ccc(OC)c(OC)c2)CC1

Data returned:
4.86 µM
24.4 µM
